Data origin, for the record: paper PMC12627862

assay: Lipophilicity of peptides, logP(oct/wat); type: physicochemical
Starred links: 1 amine or outer side, 2 acyl side, 3 side chain; linkers in the order of their positions; H or OH if unused. Non-standard residues stand in square brackets, D forms with d. Residues, ends and D or L forms follow the SMILES beside them. ξ: configuration not given here. Leu(4,5-dehydro) = C=C(C)C[C@H](N)C(=O)O; Oic = O=C(O)[C@@H]1C[C@@H]2CCCC[C@@H]2N1; GABOB(3R) = O=C(C[C@@H](O)CN[*:1])[*:2]; dVal(3-OH) = CC(C)(O)[C@@H](N)C(=O)O; cisHyp = O=C(O)[C@@H]1C[C@H](O)CN1; tBuAla = CC(C)(C)C[C@H](N)C(=O)O; ξVal(3-OH) = CC(C)(O)C(N)C(=O)O; X1 = O=C(CC(O)CN[*:1])[*:2]; 3Amb = NCc1cccc(C(=O)O)c1; 4Amb = NCc1ccc(C(=O)O)cc1
With a cut-off of -0.6, any logD strictly below it is called Satisfied; any logD meeting it or above is called Not satisfied.

Past entries and their recorded results:
compound	label class
CC[C@H](C)[C@H](NC(=O)[C@H](NC(=O)[C@@H]1C[C@H](O)CN1C(=O)[C@H](CC(C)(C)C)NC(=O)c1cccc(CNC(=O)[C@H](NC(=O)[C@@H](N)Cc2ccccc2)C(C)(C)O)c1)C(C)(C)O)C(=O)O [compound 042] (H-F[dVal(3-OH)][3Amb][tBuAla][cisHyp][dVal(3-OH)]I-OH)	Not satisfied
C=C(C)C[C@H](NC(=O)[C@H](CCC(=O)O)NC(=O)[C@H](NC(=O)[C@H](N)Cc1ccccc1)C(C)(C)O)C(=O)N1CCC[C@H]1C(=O)N[C@H](C(=O)N[C@H](C(=O)O)[C@@H](C)CC)[C@@H](C)O [compound 036] (H-[dF][dVal(3-OH)]E[Leu(4,5-dehydro)]PTI-OH)	Satisfied
CC[C@H](C)[C@H](NC(=O)[C@@H](NC(=O)[C@@H]1CCCN1C(=O)[C@@H](NC(=O)[C@H](CCC(=O)O)NC(=O)[C@@H](NC(=O)[C@H](N)Cc1ccccc1)[C@@H](C)O)[C@@H](C)CC)[C@@H](C)O)C(=O)O [compound 004] (H-[dF]TEIPTI-OH)	Satisfied
CC(C)(C)C[C@@H]1NC(=O)C[C@@H](O)CNC(=O)[C@@H]2C[C@@H]3CCCC[C@@H]3N2C(=O)[C@H](CC(C)(C)C)NC(=O)c2ccc(cc2)CNC(=O)C(C(C)(C)O)NC(=O)[C@@H](Cc2ccccc2)NC1=O (stereo partly drawn) [compound 109] (cyclo([4Amb][tBuAla][Oic][GABOB(3R)][tBuAla][dF][ξVal(3-OH)]))	Not satisfied
CC[C@H](C)[C@H](NC(=O)[C@@H](NC(=O)[C@@H]1C[C@H](O)CN1C(=O)[C@H](CC(C)(C)C)NC(=O)[C@H](CCC(=O)O)NC(=O)[C@H](NC(=O)[C@@H](N)Cc1ccccc1)C(C)(C)O)[C@@H](C)O)C(=O)O [compound 038] (H-F[dVal(3-OH)]E[tBuAla][cisHyp]TI-OH)	Not satisfied

Attention now turns to another entry.
Just wondering, is logD of C=C(C)C[C@H](NC(=O)CC(O)CNC(=O)[C@@H]1C[C@@H]2CCCC[C@@H]2N1C(=O)[C@H](CC(=C)C)NC(=O)c1ccc(CNC(=O)[C@H](NC(=O)[C@H](N)Cc2ccccc2)C(C)(C)O)cc1)C(=O)O (stereo partly shown) [compound 105] (H-[dF][dVal(3-OH)][4Amb][Leu(4,5-dehydro)][Oic][X1][Leu(4,5-dehydro)]-OH) below -0.6?
Not satisfied
